Form field: pIC50 (one value per entry).
system: p70S6K; assay: Luminex multiplex assay, p70S6K phosphorylation in cell lysates; type: cell-based; conditions: HCT116 cell line; IGF; read-out: Luminex p70S6K (IGF)
pIC50: −log10 of the molar value.
assay_metric: pIC50

compound	assay_metric	measured_value
CO[C@H]1CC[C@H](N2C(=O)CNc3ncc(-c4ccc(C(C)(C)O)nc4)nc32)CC1 [Compound 1]	pIC50	6.72
CO[C@H]1CC[C@H](N2CC(=O)Nc3ncc(-c4ccc(C(C)(C)O)nc4)nc32)CC1 [A-3]	pIC50	5.74

====

pIC50: recorded values
system: Phospho-p70S6K (T389); experiment: MSD assay, phospho-p70S6K (T389) in cell lysates; format: cell-based; conditions: PC3 cell line; read-out: MSD p70S6K
pIC50: −log10 of the molar value.

compound	experimental_target	qualifier_symbol	pIC50
CO[C@H]1CC[C@@H](CN2CC(=O)Nc3ncc(-c4cc(F)c(-c5nc[nH]n5)cc4C)nc32)CC1	Phospho-p70S6K (T389)	>	8.82
O=C1CNc2ncc(-c3cccc4[nH]ccc34)nc2N1CCC1CCOCC1	Phospho-p70S6K (T389)	<	6.30
Cc1cc(-c2nc[nH]n2)c(F)cc1-c1cnc2c(n1)N([C@H]1CC[C@@H](O)CC1)C(=O)CN2	Phospho-p70S6K (T389)	=	7.40
O=C1CN(CC2CCC(O)CC2)c2nc(-c3ccc(-c4nc[nH]n4)nc3)cnc2N1 (centres unmarked) [C-149]	Phospho-p70S6K (T389)	=	6.76
CCN1CC(=O)Nc2ncc(-c3ccc(-c4nc[nH]n4)nc3)nc21	Phospho-p70S6K (T389)	=	6.54
Cc1c(-c2cnc3c(n2)N(C2CCOCC2)CC(=O)N3)ccc(-c2nc[nH]n2)c1F	Phospho-p70S6K (T389)	=	7.24
Cc1cc(-c2nc[nH]n2)c(F)cc1-c1cnc2c(n1)N(C1CCOCC1)CC(=O)N2	Phospho-p70S6K (T389)	=	8.22
O=C1CNc2ncc(-c3ccc(-c4nc[nH]n4)nc3)nc2N1CC1CCC(O)CC1 (centres unmarked)	Phospho-p70S6K (T389)	=	7.38
